# Test system: benzodiazepine receptor
# EXPERIMENT NOTES: benzodiazepine receptor test (displacement of 3H-diazepam from rat brain receptors)
# Format: binding
# DETAILS: test compound at 3,6 μM
# Protocol: The anti-anxiety activity of the compounds of the present invention was first detected by submitting some representative compounds to the benzodiazepine receptor test. […] Our experiments were carried out by following the method described by H. Moand T. Okada in Life Sciences, Vol. 20, 2101-2110 (1977). of the test compound of 3,6 μM.
Friendly reminder: Inhibition % of the 3H diazepam binding below -60% is condition met, at or above is condition not met.

CCOC(=O)CCCN(C)c1nc2cc(-c3ccc(OC)cc3)nnc2c2ccccc12 = condition met
COc1ccc(-c2cc3nc(N4CCCCC4)c4ccccc4c3nn2)cc1 = condition met
Clc1ccc(-c2cc3nc(N4CCCC4)c4ccccc4c3nn2)cc1 = condition met
CCOC(=O)C1CCN(c2nc3cc(-c4ccc(OC)cc4)nnc3c3ccccc23)CC1 = condition not met
COCCOc1nc2cc(-c3ccc(OC)cc3)nnc2c2ccccc12 = condition not met
COc1ccc(-c2cc3nc(N4CCOCC4)c4ccccc4c3nn2)cc1 = condition met

Moving on to another compound below.
Query block: In plain terms, does "Clc1nc2cc(-c3ccccc3)nnc2c2ccccc12" come in under -60% for Inhibition % of the 3H diazepam binding?
Result block: condition not met
